# measurement-description: self-splicing fitness, log relative to wild type (ln ratio); higher = more splicing; Tetrahymena group I intron in knt gene, E. coli kanamycin selection, DiMSum; sequences stand for … in CUCUCU…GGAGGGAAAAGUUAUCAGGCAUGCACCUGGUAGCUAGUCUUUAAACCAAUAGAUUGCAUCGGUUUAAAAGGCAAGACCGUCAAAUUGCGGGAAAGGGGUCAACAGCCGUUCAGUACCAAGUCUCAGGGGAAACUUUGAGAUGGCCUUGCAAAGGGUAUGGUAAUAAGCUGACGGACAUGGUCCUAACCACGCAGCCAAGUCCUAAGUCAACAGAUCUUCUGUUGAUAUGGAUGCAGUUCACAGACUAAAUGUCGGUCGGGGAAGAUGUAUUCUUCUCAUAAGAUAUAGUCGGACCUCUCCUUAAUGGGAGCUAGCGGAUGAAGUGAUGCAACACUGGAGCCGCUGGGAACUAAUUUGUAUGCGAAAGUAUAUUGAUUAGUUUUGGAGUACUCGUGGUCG;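 note: selection with 25 µg/mL kanamycin versus none on LB agar overnight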
# protocol-conditions: 37 °C
readout-name: self-splicing fitness (ln)
Form field (numeric): enter value without unit.

// solved cases for self-splicing fitness (ln) follow
sequence-chain | observed-value
GGUCAGCAAUAUUACGCAAA | -0.412
GGAAAGCAAUAUUACGCUAC | -1.86

Identify self-splicing fitness (ln) associated with the sequence CCGCAGCAAUAUUACGUGCA -1.54

Output measured self-splicing fitness (ln) for this item: GUCAAGCAAUAUUACGUCGU -0.826

Input AACGAGCAAUAUUACGCGAG , output reported self-splicing fitness (ln). -2.61

Give the reported self-splicing fitness (ln) for this sequence. GCCCAGCAAUAUUACGCCCA -1.1

Quick one: give measured self-splicing fitness (ln) for CUGAAGCAAUAUUACGGCAA -1.21

* * *

Measured self-splicing fitness (ln) accompanies every entry in the list below.
# measurement-description: self-splicing fitness, log relative to wild type (ln ratio); higher = more splicing; Tetrahymena group I intron in knt gene, E. coli kanamycin selection, DiMSum; sequences stand for … in CUCUCU…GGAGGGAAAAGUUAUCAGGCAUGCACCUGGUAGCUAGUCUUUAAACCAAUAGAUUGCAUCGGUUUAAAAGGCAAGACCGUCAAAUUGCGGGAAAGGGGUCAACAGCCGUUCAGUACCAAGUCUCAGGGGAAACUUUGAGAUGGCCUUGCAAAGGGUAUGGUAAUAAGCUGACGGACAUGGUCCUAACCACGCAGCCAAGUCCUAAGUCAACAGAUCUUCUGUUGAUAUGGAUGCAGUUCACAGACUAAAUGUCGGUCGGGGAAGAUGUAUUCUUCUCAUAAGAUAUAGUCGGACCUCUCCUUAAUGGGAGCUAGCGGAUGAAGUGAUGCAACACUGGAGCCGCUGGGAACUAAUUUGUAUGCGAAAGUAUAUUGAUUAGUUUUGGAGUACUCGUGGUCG
# protocol-conditions: 30 °C
Please give only the number in your answer, with no unit.

Sample answers from the record:
sequence-chain | observed-value
CCAUAGCAAUAUUACGGCUA | -2.48
AUAUAGCAAUAUUACGCUUA | -1.53
GAUGAGCAAUAUUACGGGCG | -3.36
UUGGAGCAAUAUUACGAGCA | -3.18
ACCAAGCAAUAUUACGCAGA | -2.84

Given the sequence UGCUAGCAAUAUUACGUAUU , write its reported self-splicing fitness (ln). -3.06

Report self-splicing fitness (ln), nothing else, for this sequence: GGUCAGCAAUAUUACGGGAG -3.38

Please give measured self-splicing fitness (ln) of the following entry: UAGUAGCAAUAUUACGCGCU -1.46

Annotate the sequence AUUAAGCAAUAUUACGCUCG with its measured self-splicing fitness (ln). -0.344
